In this section we review reported IC50 values for a set of compounds.
Biological target: recombinant JAK1 (amino acids 866-1154) (Homo sapiens (Human))
Sequence (P23458 866-1154): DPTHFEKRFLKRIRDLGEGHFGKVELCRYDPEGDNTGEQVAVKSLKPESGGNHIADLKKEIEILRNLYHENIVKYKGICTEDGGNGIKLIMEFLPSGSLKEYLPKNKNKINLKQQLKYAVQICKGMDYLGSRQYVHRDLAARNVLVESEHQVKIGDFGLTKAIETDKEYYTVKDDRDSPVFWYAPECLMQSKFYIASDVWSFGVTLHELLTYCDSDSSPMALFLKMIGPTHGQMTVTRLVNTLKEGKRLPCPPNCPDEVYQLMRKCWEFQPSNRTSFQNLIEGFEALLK
Experiment: Enzyme inhibition studies, JAK1 (5 mM ATP, Caliper)
parameter measured: IC50 (µM)

| compound | parameter measured | obs value |
| --- | --- | --- |
| Cc1cnc(Nc2cccc(S(C)(=O)=O)c2F)nc1-c1c[nH]c2c(NC(=O)[C@@H](C)N3CCN(C)C[C@@H]3C)cccc12 [Example 58] | IC50 | 0.0486 |
| COC[C@@H](C(=O)Nc1cccc2c(-c3nc(Nc4cccc(S(C)(=O)=O)c4F)ncc3C)c[nH]c12)N1CCCN(C)CC1 [Example 43] | IC50 | 0.095 |
| C[C@H](C(=O)Nc1cccc2c(-c3nc(Nc4cccc(S(C)(=O)=O)c4F)ncc3F)c[nH]c12)N1C[C@H](C)N[C@@H](C)C1 [Example 11] | IC50 | 0.0131 |
